compounds and their reported IC50
# EXPERIMENTAL_SYSTEM: PKC epsilon (Homo sapiens, UniProt Q02156)
# Construct: purchased Invitrogen P2282
# EXPERIMENT: Biochemical assay for PKC epsilon (fluorescence polarization, Protein Kinase C Assay Kit, Red)
# SETUP_CONDITIONS: Table 2, compounds of Formula XIII; read-out: IC50 μM PKCε

[[record]]
compound = "NC(CNC(=O)C1(c2ccc(F)c(F)c2)CCCC1)c1ccc(C(=O)Nc2ccncc2)cc1 (centres unmarked)"
test_result = "< 0.05 µM"

[[record]]
compound = "NC(CNC(=O)c1ccc2c(c1)OCO2)c1ccc(C(=O)Nc2ccncc2)cc1 (centres unmarked)"
test_result = "5 to 50 µM"

[[record]]
compound = "NC(CNC(=O)Cc1ccc(F)cc1Cl)c1ccc(C(=O)Nc2ccncc2)cc1 (centres unmarked)"
test_result = "0.05 to 0.5 µM"


Query string: IC50 of Cc1ccccc1CC(=O)NCC(N)c1ccc(C(=O)Nc2ccncc2)cc1 (centres unmarked) on PKC epsilon (Homo sapiens, UniProt Q02156)?
Result string: 0.5 to 5 µM

* * *

# EXPERIMENTAL_SYSTEM: PKC epsilon (Homo sapiens, UniProt Q02156)
# Construct: purchased Invitrogen P2282
# Sequence (Q02156 1-737): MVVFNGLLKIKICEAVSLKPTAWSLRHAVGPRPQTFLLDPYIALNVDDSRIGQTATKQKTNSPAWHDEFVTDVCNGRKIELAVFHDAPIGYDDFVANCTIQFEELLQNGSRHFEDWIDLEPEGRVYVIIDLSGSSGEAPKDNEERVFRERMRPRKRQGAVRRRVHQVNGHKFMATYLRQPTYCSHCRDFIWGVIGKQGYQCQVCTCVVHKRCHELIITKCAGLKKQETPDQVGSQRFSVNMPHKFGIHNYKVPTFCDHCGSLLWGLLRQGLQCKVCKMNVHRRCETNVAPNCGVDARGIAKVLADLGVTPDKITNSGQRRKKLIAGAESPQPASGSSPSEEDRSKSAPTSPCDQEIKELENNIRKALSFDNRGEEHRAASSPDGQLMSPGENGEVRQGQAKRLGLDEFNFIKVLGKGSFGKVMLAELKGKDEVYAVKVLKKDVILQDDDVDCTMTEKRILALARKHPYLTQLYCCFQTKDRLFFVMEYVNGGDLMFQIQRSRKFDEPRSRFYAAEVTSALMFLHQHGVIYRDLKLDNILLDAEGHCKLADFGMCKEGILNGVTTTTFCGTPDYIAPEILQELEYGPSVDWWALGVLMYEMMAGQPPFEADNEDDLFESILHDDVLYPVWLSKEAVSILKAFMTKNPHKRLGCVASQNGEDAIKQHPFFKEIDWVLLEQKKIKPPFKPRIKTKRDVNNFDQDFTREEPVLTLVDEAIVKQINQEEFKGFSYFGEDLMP
# EXPERIMENT: Biochemical assay for PKC epsilon (fluorescence polarization, Protein Kinase C Assay Kit, Red)
# SETUP_CONDITIONS: read-out: IC50 μM PKCε
MEASURE_NAME: IC50

[[record]]
molecule = "NC(c1ccc(C(=O)Nc2ccncc2)cc1)C1CCCN1C(=O)C1CCSc2ccc(F)cc21 (stereo not shown)"
test_result = "0.5 to 5 µM"

[[record]]
molecule = "NC(c1ccc(C(=O)Nc2ccncc2)cc1)C1CCCN1C(=O)C1(c2ccsc2)CC1 (stereo not shown)"
test_result = "5 to 50 µM"

[[record]]
molecule = "CN(CC(N)c1ccc(C(=O)Nc2ccncc2)cc1)C(=O)Cc1c(F)cccc1Cl (stereo not shown)"
test_result = "5 to 50 µM"

[[record]]
molecule = "NC(CNC(=S)Nc1ccc(Cl)cc1)c1ccc(C(=O)Nc2ccncc2)cc1 (stereo not shown)"
test_result = "0.05 to 0.5 µM"

[[record]]
molecule = "NC(c1ccc(C(=O)Nc2ccncc2)cc1)C1CCCN1C(=O)C1(c2cccs2)CC1 (stereo not shown)"
test_result = "5 to 50 µM"


Query string: Using the record for N[C@H](CC(=O)N[C@@H]1COc2ccccc21)c1ccc(C(=O)Nc2ccncc2)cc1 , report its IC50.
Result string: < 0.05 µM

Query string: // repeat for NC(c1ccc(C(=O)Nc2ccncc2)cc1)C1CCCN1C(=O)C1(c2ccc(Cl)cc2)CCC1 (stereo not shown) and report
Result string: 0.5 to 5 µM

Query string: Follow-up entry: N[C@H](CC(=O)NCc1ccc(F)cc1)c1ccc(C(=O)Nc2ccncc2)cc1
Result string: < 0.05 µM

Query string: Another molecule to check: NC(c1ccc(C(=O)Nc2ccncc2)cc1)C1CCCN1C(=O)Cc1ccccc1F (stereo not shown)
Result string: 5 to 50 µM

Data provenance is patent US20100168102A9.
